Reference source: the supplement of paper PMC10567573

B1: TRIM43 (parent)
chain: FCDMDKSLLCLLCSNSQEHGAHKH

Variants of: B1
protocol_details: protein stability index of a GFP-peptide fusion (GPS, HEK-293T) (PSI 1-6); higher = more stable;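 also: lentivirally expressed fusions sorted by FACS into six bins by GFP to DsRed ratio, PSI derived from sequencing read proportions per bin multiplied by bin number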
test_context: c terminus: a fixed tail appended
Please note: rule met applies when protein stability index is 2 or greater, and rule not met applies otherwise.

# input Has D3T a recorded protein stability index greater than or equal to 2?
# output rule not met

# input Answer whether protein stability index of F1A is greater than or equal to 2.
# output rule met

# input Reported protein stability index at or above 2? L12M
# output rule met

# input Could you tell me if the measured protein stability index of K6R reaches 2 or more?
# output rule not met

# input API: above_or_equal(metric=protein stability index, cutoff=2) for item H19F
# output rule not met

# input State whether the measured protein stability index reaches 2, counting equality as reaching it, for D3W
# output rule not met
